System: LOX IMVI melanoma
Test: NCI-60 one-dose screen, 48 h
Conditions: 10 µM unless noted
This is part of a sample that, as a whole, favours compounds with a hit. Of some 83,000 tested, about 20% had one in any assay. Active and inactive are the calls of the source. Rule for the calls: active = growth percent below 10; inactive = the rest.
Please reply with one of these outcomes: true = active, false = inactive

# compound, class.assignment
records = [
    ("Cc1ccc(-c2cc(O)c(-c3ccc(C)cc3C)cc2O)c(C)c1", "false"),
    ("C=CCc1nc2ccccc2s1", "false"),
    ("CC1(C)C(=O)/C(=C\\c2cccnc2)C[C@]2(C)[C@H]3CC[C@@H]4[C@H]5[C@H](C(=O)/C=C/c6cccnc6)CC[C@]5(C(=O)O)CC[C@@]4(C)[C@]3(C)CC[C@@H]12", "true"),
    ("O=C(N=c1n(-c2ccccc2)nc2n1CCN2C1=NCCN1C(=O)c1ccc(Cl)cc1)c1ccc(Cl)cc1", "false"),
    ("CCOC(=O)C1=C(C(=O)c2ccc(Br)cc2)C(c2ccc(Br)cc2)NC(=S)N1 (stereo not drawn)", "false"),
]

stdin: Any idea what this test logged for CCN(CC)c1ccc2cc(C(Nc3ccc(C)cc3)c3nnnn3C(C)(C)C)c(=O)oc2c1 (stereo not drawn) ?
stdout: false

stdin: Any idea what this test logged for C=C(C)[C@@H]1CC[C@]2(C(=O)NCCCN)CC[C@]3(C)[C@H](CC[C@@H]4[C@@]5(C)CC[C@H](O)C(C)(C)[C@@H]5CC[C@]43C)[C@@H]12 ?
stdout: true

stdin: Any idea what this test logged for C=C(C)[C@@H]1CC[C@]2(C(N)=O)CC[C@]3(C)[C@H](CC[C@@H]4[C@@]5(C)C/C(=C/c6cccnc6)[C@H](O)C(C)(C)[C@@H]5CC[C@]43C)[C@@H]12 ?
stdout: true

stdin: Any idea what this test logged for CCC(Br)(CC)C(=O)c1ccc(OCC(=O)O)c(Cl)c1Cl ?
stdout: false

Each recorded value in this set is attributed to PubChem BioAssay (NCI).
